molecular target: human H4 receptor (Homo sapiens, UniProt Q9H3N8); construct: expressed in transfected cells; experiment: [3H]Histamine binding on membranes of CHO cells stably expressing human H4 receptor
Sequence (Q9H3N8 whole entry): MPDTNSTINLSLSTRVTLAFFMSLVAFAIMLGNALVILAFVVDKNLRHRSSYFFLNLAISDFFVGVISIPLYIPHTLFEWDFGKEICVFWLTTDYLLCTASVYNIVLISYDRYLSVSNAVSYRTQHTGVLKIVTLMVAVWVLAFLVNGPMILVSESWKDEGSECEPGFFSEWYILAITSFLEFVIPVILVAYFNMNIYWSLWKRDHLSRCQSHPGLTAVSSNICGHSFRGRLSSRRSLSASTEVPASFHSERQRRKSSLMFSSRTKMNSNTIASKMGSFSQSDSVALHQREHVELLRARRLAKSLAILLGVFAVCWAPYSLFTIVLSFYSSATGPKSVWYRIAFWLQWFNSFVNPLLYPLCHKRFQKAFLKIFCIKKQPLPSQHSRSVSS
measured-property: Ki or IC50 activity class

Below, each entry is followed by its recorded Ki or IC50 activity class result.
CN1CCC(OC(c2cccc(C#CCCCCNC(=N)NC(=O)OC(C)(C)C)c2)c2nc3ccccc3s2)CC1 (stereo not drawn) | < 300 nM
CN1CCC(OC(c2cccc(SCCCc3cnc[nH]3)c2)c2nc3ccccc3[nH]2)CC1 (stereo not drawn) | < 300 nM
CN1CCC(OC(c2cccc(SCCCCCCNC(=N)N)c2)c2nc3ccccc3[nH]2)CC1 (stereo not drawn) | < 300 nM
CN1CCC(OC(c2cccc(CCCCCCN)c2)c2nc3ccccc3s2)CC1 (stereo not drawn) | < 30 nM
CN1CCC(OC(c2cccc(C#CCCCn3ccnn3)c2)c2nc3ccccc3[nH]2)CC1 (stereo not drawn) | < 1000 nM
CCCCOc1cccc(C(OC2CCN(C)CC2)c2nc3ccccc3s2)c1 (stereo not drawn) | < 300 nM
CN1CCC(NC(c2cccc(F)c2)c2nc3ccccc3[nH]2)CC1 (stereo not drawn) | < 300 nM
CN1CCC(OC(c2cccc(OCc3cccc(F)c3)c2)c2nc3ccccc3s2)CC1 (stereo not drawn) | < 30 nM
CN1CCC(OC(c2cccc(F)c2)c2nc3ccccc3s2)CC1 (stereo not drawn) | < 300 nM
CN1CCC(OC(c2nc3ccccc3s2)c2cccc3ccccc23)CC1 (stereo not drawn) | < 1000 nM

Tell me the measured Ki or IC50 activity class of Cc1cc(F)c(C(OC2CCN(C)CC2)c2nc3ccccc3o2)c(F)c1 (stereo not drawn) , please.
< 30 nM

----------
Reported melting point by item:
Structures can show the parent of a compound that is named as a salt.
Kindly answer with a numeric value in °C, unit omitted.

Below, each entry is followed by its recorded melting point result.
CN1CCC(OC(c2nc3ccccc3[nH]2)c2cc(Cl)cc(Cl)c2O)CC1 (stereo not shown) | 161
CN1CCC(OC(c2cccc(N3CCC(F)C3)c2)c2nc3ccccc3s2)CC1 (stereo not shown) (as salt: oxalate) [Example 454] | 103
CC(C)Oc1cccc(C(OC2CCN(C)CC2)c2nc3ccccc3s2)c1 (stereo not shown) (as salt: oxalate) | 68
CSc1cccc(-c2cccc(C(OC3CCN(C)CC3)c3nc4ccccc4[nH]3)c2)c1 (stereo not shown) (as salt: oxalate) | 80

Okay, next one:
Tell me the measured melting point of CCOc1ccc(F)c(C(OC2CCN(C)CC2)c2nc3ccccc3[nH]2)c1F (stereo not shown) , please.
130

----------
Structures can show the parent of a compound that is named as a salt.
Reported melting point by item:
Kindly answer with a numeric value in °C, unit omitted.

Tell me the measured melting point of CN1CCC(OC(c2cccc(SCCCN)c2)c2nc3ccccc3s2)CC1 (centres unmarked) (as salt: oxalate) , please.
99

Can you handle CN1CCC(OC(c2cccc(OCCCO)c2)c2nc3ccccc3s2)CC1 (centres unmarked) (as salt: oxalate) next?
79

Can you handle CC(C)c1cccc(C(NC2CCN(C)CC2)c2nc3ccccc3[nH]2)c1 (centres unmarked) next?
82

Can you handle CN1CCC(OC(c2cccc(OCCCCCN)c2)c2nc3ccccc3s2)CC1 (centres unmarked) (as salt: oxalate) next?
141

Can you handle COc1ccc(F)c(C(OC2CCN(C)CC2)c2nc3ccccc3[nH]2)c1 (centres unmarked) (as salt: oxalate) next?
105

Can you handle CN1CCC(NC(c2cccc(OCCF)c2)c2nc3ccccc3[nH]2)CC1 (centres unmarked) (as salt: oxalate) next?
155

Can you handle Cc1cc(O)c(C(OC2CCN(C)CC2)c2nc3ccccc3[nH]2)cc1F (centres unmarked) next?
102

Can you handle CN1CCC(OC(c2cccc(SCCCF)c2)c2nc3ccccc3[nH]2)CC1 (centres unmarked) (as salt: oxalate) next?
85
